- MEASURED TARGET: Free fatty acid receptor 4 (Mus musculus)
- TEST DESCRIPTION: Agonist activity at mouse GPR120 expressed in CHOK1 cells assessed as induction of IP1 accumulation after 60 mins by HTRF assay
- Assay type: functional, cell-based, CHO-K1
PROPERTY: pEC50
Recall that pEC50 is obtained by taking minus log10 of the concentration measured in molar.

pEC50 for O=C(O)CC1CCC2(CC1)CCN(c1cc(OC(F)(F)F)ccc1Cl)CC2 is 7.48

pEC50 for O=C(O)CC1CCC2(CC1)CCN(c1cc(C(F)(F)F)ccn1)CC2 is 5.89

pEC50 for N#Cc1ccc(OC(F)(F)F)cc1N1CCC2(CCC(CC(=O)O)CC2)CC1 is 7.18

pEC50 for N#Cc1cc(SC(F)(F)F)cc(N2CCC3(CCC(CC(=O)O)CC3)CC2)c1 is 7.36

====

Consider the following compounds; for each one, report its pEC50.
- MEASURED TARGET: Free fatty acid receptor 4 (Homo sapiens)
- Sequence (Q5NUL3 whole entry): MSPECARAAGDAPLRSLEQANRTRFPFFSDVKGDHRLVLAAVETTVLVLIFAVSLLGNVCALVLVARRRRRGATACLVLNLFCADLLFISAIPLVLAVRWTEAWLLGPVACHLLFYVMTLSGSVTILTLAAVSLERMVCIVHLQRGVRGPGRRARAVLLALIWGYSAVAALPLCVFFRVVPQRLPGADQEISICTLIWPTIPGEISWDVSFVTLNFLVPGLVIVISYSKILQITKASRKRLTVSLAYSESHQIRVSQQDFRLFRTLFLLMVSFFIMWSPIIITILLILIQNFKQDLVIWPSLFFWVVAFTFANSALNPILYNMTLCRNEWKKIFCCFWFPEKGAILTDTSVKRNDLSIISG
- TEST DESCRIPTION: Agonist activity at human GPR120 short isoform expressed in CHOK1 cells assessed as induction of IP1 accumulation after 60 mins by HTRF assay
- Type: functional, cell-based, CHO-K1
Recall that pEC50 is obtained by taking minus log10 of the concentration measured in molar.

pEC50 for COc1ccc(Cl)c(N2CCC3(CCC(CC(=O)O)CC3)CC2)c1 is 5.68

pEC50 for O=C(O)CC1CCC2(CC1)CCN(c1cc(C(F)(F)F)ccc1F)CC2 is 5.92

pEC50 for O=C(O)C1CC12CCC1(CCN(c3cc(OC(F)(F)F)ccc3Cl)CC1)CC2 (stereo not drawn) is 5.66

pEC50 for O=C(O)CC1CCC2(CC1)CCN(c1cc(F)cc(Cl)c1F)CC2 is 6.38

pEC50 for O=C(O)CC1CCC2(CC1)CCN(c1cc(C(F)(F)F)ccn1)CC2 is 5.51

pEC50 for O=C(O)CC1CCC2(CC1)CCN(c1cc(OC(F)(F)F)ccc1F)CC2 is 6.89

pEC50 for O=C(O)CCC1CCC2(CC1)CCN(c1cc(OC(F)(F)F)ccc1Cl)CC2 is 5.57

====

- TEST DESCRIPTION: AUC in dog at 1 mg/kg, iv by LC/MS/MS analysis
- Assay type: ADME, organism-based, Canis lupus familiaris
- STATED CONDITIONS: in vivo
PROPERTY: AUC (µM·h)
Reply numerically in µM·h, unit not repeated.

AUC for O=C(O)CC1CCC2(CC1)CCN(c1cc(OC(F)(F)F)ccc1Cl)CC2 is 4.6

====

- MEASURED TARGET: Free fatty acid receptor 4 (Mus musculus, UniProt Q7TMA4)
- Sequence (Q7TMA4 whole entry): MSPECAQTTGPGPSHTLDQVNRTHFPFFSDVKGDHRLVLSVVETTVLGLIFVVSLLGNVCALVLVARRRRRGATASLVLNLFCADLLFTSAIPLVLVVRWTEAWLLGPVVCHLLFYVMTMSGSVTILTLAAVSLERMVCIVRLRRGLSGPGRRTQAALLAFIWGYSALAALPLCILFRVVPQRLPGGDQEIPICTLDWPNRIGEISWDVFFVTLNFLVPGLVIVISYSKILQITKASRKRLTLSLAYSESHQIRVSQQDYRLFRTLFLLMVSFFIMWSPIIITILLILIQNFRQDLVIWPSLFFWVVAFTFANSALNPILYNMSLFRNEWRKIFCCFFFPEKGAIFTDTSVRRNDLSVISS
- TEST DESCRIPTION: Agonist activity at mouse GPR120 assessed as induction of beta-arrestin recruitment
Consider the following compounds; for each one, report its EC50.
Reply numerically in nM, unit not repeated.

EC50 for Cc1cc(-c2cc(OC(F)(F)F)ccc2Cl)cc(C)c1OCCCC(=O)O is 35

EC50 for O=C(O)CCc1cc2cc(-c3cc(OC(F)(F)F)ccc3F)ccc2o1 is 21

EC50 for O=C(O)C1CCC(C2CCN(c3cc(OC(F)(F)F)ccc3F)CC2)CC1 (stereo not given) is 990

EC50 for O=C(O)C1CCN(c2ccc(-c3cc(OC(F)(F)F)ccc3F)cc2)CC1 is 320

====

- MEASURED TARGET: Free fatty acid receptor 4 (Homo sapiens, UniProt Q5NUL3)
- Sequence (Q5NUL3 whole entry): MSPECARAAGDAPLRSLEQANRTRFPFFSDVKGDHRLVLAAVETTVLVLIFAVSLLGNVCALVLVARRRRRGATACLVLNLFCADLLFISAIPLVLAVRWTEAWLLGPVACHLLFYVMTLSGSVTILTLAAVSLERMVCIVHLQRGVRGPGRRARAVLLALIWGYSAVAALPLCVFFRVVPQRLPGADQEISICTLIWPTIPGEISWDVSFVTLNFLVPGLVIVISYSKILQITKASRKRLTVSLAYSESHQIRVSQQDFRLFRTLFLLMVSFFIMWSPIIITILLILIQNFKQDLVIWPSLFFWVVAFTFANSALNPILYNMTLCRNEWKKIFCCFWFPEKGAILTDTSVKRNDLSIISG
- TEST DESCRIPTION: Agonist activity at human GPR120 short isoform expressed in CHOK1 cells assessed as induction of IP1 accumulation after 60 mins by HTRF assay
- Format: functional, cell-based, CHO-K1
PROPERTY: EC50

Tested system Free fatty acid receptor 4 (Homo sapiens, UniProt Q5NUL3); EC50 recorded for O=C(O)CN1CCC2(CC1)CCN(c1cc(OC(F)(F)F)ccc1F)CC2 was > 10000 nM

Tested system Free fatty acid receptor 4 (Homo sapiens, UniProt Q5NUL3); EC50 recorded for O=C(O)CC1CCC2(CC1)CCN(c1cc(Cl)cc(Cl)c1)CC2 was 220 nM

Tested system Free fatty acid receptor 4 (Homo sapiens, UniProt Q5NUL3); EC50 recorded for N#Cc1ccc(OC(F)(F)F)cc1N1CCC2(CCC(CC(=O)O)CC2)CC1 was 200 nM

Tested system Free fatty acid receptor 4 (Homo sapiens, UniProt Q5NUL3); EC50 recorded for N#Cc1cc(SC(F)(F)F)cc(N2CCC3(CCC(CC(=O)O)CC3)CC2)c1 was 360 nM

Tested system Free fatty acid receptor 4 (Homo sapiens, UniProt Q5NUL3); EC50 recorded for CC1(C)Cc2cc(Cl)cc(N3CCC4(CCC(CC(=O)O)CC4)CC3)c2O1 was 3300 nM

====

Consider the following molecules; for each one, report its pEC50.
- MEASURED TARGET: UniProt Q5NUL3
- TEST DESCRIPTION: Agonist activity at ARMS2-PK2 -tagged human GPR120 short isoform expressed in CHOK1 cells assessed as induction of beta-arrestin2 recruitment after 90 mins by luminescence assay
- Format: cell-based, CHO-K1
pEC50: −log10 of the molar value.

pEC50 for O=C(O)CC1CCC2(CC1)CCN(c1ccccc1Cl)CC2 is < 5.00

pEC50 for CC1(C)Cc2cc(Cl)cc(N3CCC4(CCC(CC(=O)O)CC4)CC3)c2O1 is 5.51

pEC50 for O=C(O)CN1CCC2(CC1)CCN(c1cc(OC(F)(F)F)ccc1F)CC2 is < 5.00

Values were extracted from ChEMBL document CHEMBL3872283.
